Measured values drawn from patent US6620828B2 for this set.

- EXPERIMENTAL TARGET: CDK2/Cyclin A complex (Homo sapiens, UniProt P24941)
- METHOD: CDK2/Cyclin A assay
- Type: biochemical
- TEST SETTINGS: 1.0 μM; combinatorial library compounds
MEASUREMENT NAME: inhibition at 1 µM (%)
Number in %, nothing else.

Nc1nc(Nc2ccc(S(N)(=O)=O)cc2)sc1-c1nc(-c2ccc3c(c2)OCCO3)cs1; 21.4
CN(C)c1ccc(Nc2nc(N)c(-c3nc(-c4cccc([N+](=O)[O-])c4)cs3)s2)cc1; 17.1
CN(C)c1ccc(Nc2nc(N)c(-c3nc(-c4ccc(F)c(F)c4)cs3)s2)cc1; 3.3
COc1ccccc1-c1csc(-c2sc(Nc3ccc(S(N)(=O)=O)cc3)nc2N)n1 [drawing 394]; 18.9

Now for a further compound.
Report inhibition at 1 µM, nothing else, for this compound: Nc1nc(Nc2ccc(S(N)(=O)=O)cc2)sc1-c1nc(-c2ccc(Cl)cc2)cs1
18.5
